The measured values listed here are drawn from patent US6114334A.

System Tested: α2D-adrenoceptors (Rattus norvegicus)
Sequence (P22909 1-465): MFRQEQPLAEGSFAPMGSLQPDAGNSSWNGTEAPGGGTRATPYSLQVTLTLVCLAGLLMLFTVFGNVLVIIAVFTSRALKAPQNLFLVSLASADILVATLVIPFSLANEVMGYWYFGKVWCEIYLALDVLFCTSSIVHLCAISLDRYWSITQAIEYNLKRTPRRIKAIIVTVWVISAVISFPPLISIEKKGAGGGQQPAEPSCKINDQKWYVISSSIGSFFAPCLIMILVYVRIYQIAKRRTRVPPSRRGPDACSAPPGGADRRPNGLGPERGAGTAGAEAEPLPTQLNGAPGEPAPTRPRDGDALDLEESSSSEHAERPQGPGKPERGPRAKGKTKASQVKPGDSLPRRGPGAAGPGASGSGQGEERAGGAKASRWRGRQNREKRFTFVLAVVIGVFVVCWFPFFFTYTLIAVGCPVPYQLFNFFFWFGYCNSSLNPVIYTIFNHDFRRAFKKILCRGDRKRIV
pKi: −log10 of the molar value. Where a name gives a salt, the structure may show the parent alone.
Endpoint Name: pKi

// worked examples, pKi included
>>> print(df.to_string())
                                   molecule  observed_value
0  CC1(CN2CCN(c3cccc(Cl)c3)CC2)N=C(c2ccccc2)NC1=O (centres unmarked)            6.65
1  C=CCn1c(-c2ccccc2)nn(CN2CCN(c3ccccc3OC)CC2)c1=S            6.83
2  C=CCn1c(-c2ccncc2)nn(CN2CCN(c3ccccc3OC)CC2)c1=S            6.84
3  CCCn1c(N)c(CN2CCN(c3cccc4c3OCCO4)CC2)c(=O)n1-c1ccccc1            6.92

1. Nc1c(CN2CCN(c3cccc4c3OCCO4)CC2)c(C2CC2)nn1-c1ccccc1
2. Cn1nc(C2CC2)c(CN2CCN(c3cccc4c3OCCO4)CC2)c1N [Example 18, hydrochloride]
[Q] Compare pKi: is it lower for 1 or for 2 ? Pick one; state its label.
[A] 1
(1: 6.79, 2: 7.16)

* * *

System Tested: UniProt:P22909
Sequence (P22909 1-465): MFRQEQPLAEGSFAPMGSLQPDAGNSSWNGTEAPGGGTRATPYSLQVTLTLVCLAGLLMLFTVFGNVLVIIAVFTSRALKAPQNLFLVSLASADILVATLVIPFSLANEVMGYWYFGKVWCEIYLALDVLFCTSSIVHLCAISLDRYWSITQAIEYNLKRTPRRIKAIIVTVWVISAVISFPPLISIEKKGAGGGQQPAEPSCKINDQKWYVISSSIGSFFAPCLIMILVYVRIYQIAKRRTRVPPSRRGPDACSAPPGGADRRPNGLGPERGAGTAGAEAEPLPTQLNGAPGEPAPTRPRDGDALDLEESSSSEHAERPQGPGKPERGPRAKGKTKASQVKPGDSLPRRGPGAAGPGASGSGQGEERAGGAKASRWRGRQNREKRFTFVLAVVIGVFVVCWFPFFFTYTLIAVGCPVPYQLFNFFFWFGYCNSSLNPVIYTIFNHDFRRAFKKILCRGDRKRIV
Test: inhibition of tritiated idazoxan binding to α2D-adrenoceptors in vitro
Set-up: species or system rat (male Charles River CD, frontal cortical tissue)
Assay Conditions: rat frontal cortex, [3H]idazoxan 1 nM, 0° C., 75 min
Endpoint Name: Ki (nM)

// worked examples, Ki included
In [3]: df
Out[3]:
                                   molecule  observed_value
0  Cc1ccccc1N1CCN(Cc2c(C3CC3)nn(-c3ccccc3)c2N)CC1 [Example 19]             4.9
1  COc1ccccc1N1CCN(CC2(C)N=C(c3ccccc3)NC2=O)CC1 (stereo not drawn) [Example 37]             112
2  C=CCn1c(-c2cccnc2)nn(CN2CCN(c3ccccc3OC)CC2)c1=S [Example 47]             178
3  C=CCn1c(C)nn(CN2CCN(c3ccccc3OC)CC2)c1=S [Example 59]             255
4  C=CCn1c(-c2ccco2)nn(CN2CCN(c3ccccc3OC)CC2)c1=S [Example 56]             197

P. COc1ccccc1N1CCN(Cn2nc(C(F)(F)F)n(C)c2=S)CC1 [Example 54]
Q. COc1ccccc1N1CCN(Cc2c(C3CC3)nn(-c3ccccc3)c2N)CC1 [Example 9]
R. Nc1c(CN2CCN(c3cccc4ccoc34)CC2)c(C2CC2)nn1-c1ccccc1 [Example 27]
[Q] Arrange these molecules by their Ki, starting with the largest number. Please list the labels in the order you were asked to rank them.
[A] P, Q, R

I. CC1(CN2CCN(c3cccc4c3OCCO4)CC2)N=C(c2cccnc2)NC1=O (stereo not drawn) [Example 40]
II. C=CCn1c(N)c(CN2CCN(c3cccc4c3OCCO4)CC2)c(=O)n1-c1ccccc1 [Example 6]
[Q] Select the item with the higher value of Ki from the options I and II listed. Pick one; state its label.
[A] I
(I: 220 nM, II: 111 nM)

* * *

Target protein (sequence): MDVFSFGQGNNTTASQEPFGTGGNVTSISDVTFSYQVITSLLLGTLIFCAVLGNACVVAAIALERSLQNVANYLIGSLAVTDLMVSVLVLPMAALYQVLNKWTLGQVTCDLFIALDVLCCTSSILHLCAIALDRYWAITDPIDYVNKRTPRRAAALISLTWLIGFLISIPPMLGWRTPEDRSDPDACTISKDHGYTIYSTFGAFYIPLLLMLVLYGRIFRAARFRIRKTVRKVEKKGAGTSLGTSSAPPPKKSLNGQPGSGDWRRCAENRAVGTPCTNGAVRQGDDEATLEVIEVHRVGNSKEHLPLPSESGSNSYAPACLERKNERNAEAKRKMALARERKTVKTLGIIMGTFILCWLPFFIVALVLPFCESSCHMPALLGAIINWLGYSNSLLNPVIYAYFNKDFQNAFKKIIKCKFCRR
pKi: −log10 of the molar value.
Endpoint Name: pKi

// worked examples, pKi included
>>> print(df.to_string())
                                   compound  observed_value
0  C=CCn1c(-c2cccs2)nn(CN2CCN(c3ccccc3OC)CC2)c1=S            6.86
1  C=CCn1c(-c2ccccn2)nn(CN2CCN(c3ccccc3OC)CC2)c1=S            6.90
2  COc1ccccc1N1CCN(CC2(C)N=C(c3cccnc3)NC2=O)CC1 (stereo not drawn)            6.87

a. COc1ccccc1N1CCN(Cn2ncn(C)c2=S)CC1
b. Cn1c(N)c(CN2CCN(c3cccc4ccccc34)CC2)c(=O)n1-c1ccccc1
[Q] Compare pKi: is it lower for a or for b ? Pick one; state its label.
[A] a
(a: 6.97, b: 7.41)

* * *

System Tested: 5-HT1A receptors (Rattus norvegicus, UniProt P19327)
Test: inhibition of [3H]8-OH-DPAT binding to 5-HT1A receptors in vitro
Design: species or system rat (male Sprague-Dawley, hippocampal tissue)
Assay Conditions: 10^-6 M, rat hippocampus, [3H]8-OH-DPAT; read-out: % displacement at 10^-6 M, 5-HT1A
Endpoint Name: inhibition at 1 µM (%)

In [3]: df
Out[3]:
                                   molecule       endpoint_name  unit_annotation  observed_value
0  C=CCn1c(-c2ccc(Cl)cc2)nn(CN2CCN(c3ccccc3OC)CC2)c1=S  inhibition at 1 µM                %              77
1  C=CCn1c(-c2cccnc2)nn(CCCCN2CCN(c3cccc(C)c3C)CC2)c1=O  inhibition at 1 µM                %              90
2  Nc1c(CN2CCN(c3cccc(Cl)c3)CC2)c(C2CC2)nn1-c1ccccc1  inhibition at 1 µM                %              74
3  COc1ccccc1N1CCN(Cn2nc(-c3ccncc3)n(C)c2=S)CC1  inhibition at 1 µM                %              54
4  C=CCn1c(-c2ccccc2)nn(CCN2CCN(c3ccccc3OC)CC2)c1=O.O=C(O)/C=C/C(=O)O [Example 68, monofumarate]  inhibition at 1 µM                %              56
5  C=CCn1c(-c2cccnc2)nn(CN2CCN(c3cccc(C)c3C)CC2)c1=S  inhibition at 1 µM                %              52
6  Nc1c(CN2CCN(c3cccc(C(F)(F)F)c3)CC2)c(C2CC2)nn1-c1ccccc1  inhibition at 1 µM                %              67
7  C=CCn1c(C)nn(CCN2CCN(c3ccccc3OC)CC2)c1=O  inhibition at 1 µM                %              69
8  C=CCn1c(-c2cccnc2)nn(CN2CCN(c3ccccc3OC)CC2)c1=O  inhibition at 1 µM                %              74
